Reference for the values: ChEMBL document CHEMBL1146329

Measured log10 of IC50 by item
System: Human immunodeficiency virus 1
Experiment: Antiviral activity against HIV1 RT 188L mutant assessed as inhibition of viral-induced cytopathicity in MT4 cells by MTT method
Type: functional, organism-based
Details: Human immunodeficiency virus 1, MT4
Measurement type: log10 of IC50 (log10 of the value in nM)

[[record]]
structure_smiles_string = "CCc1c(C)[nH]c(=O)c(I)c1Oc1cc(C)cc(C)c1"
value_measured = 1.70

[[record]]
structure_smiles_string = "CCc1c(C)[nH]c(=O)c(SCCC(N)=O)c1Oc1cc(C)cc(C)c1"
value_measured = 3.40

[[record]]
structure_smiles_string = "CCc1c(C)[nH]c(=O)c(C(C)C)c1Oc1cc(C)cc(C)c1"
value_measured = 1.50

[[record]]
structure_smiles_string = "CCc1c(C)[nH]c(=O)c(C(F)(F)F)c1Oc1cc(C)cc(C)c1"
value_measured = 2.30

[[record]]
structure_smiles_string = "CCc1c(C)[nH]c(=O)c(OC)c1Oc1cc(C)cc(C)c1"
value_measured = 2.90

[[record]]
structure_smiles_string = "C=Cc1c(Oc2cc(C)cc(C)c2)c(CC)c(C)[nH]c1=O"
value_measured = 1.10

[[record]]
structure_smiles_string = "CCc1c(C)[nH]c(=O)c(Cl)c1Oc1cc(C)cc(C)c1"
value_measured = 2.60

[[record]]
structure_smiles_string = "CCc1c(C)[nH]c(=O)c(Sc2ccccc2)c1Oc1cc(C)cc(C)c1"
value_measured = 2.90

[[record]]
structure_smiles_string = "CCc1c(C)[nH]c(=O)c(C2CC2)c1Oc1cc(C)cc(C)c1"
value_measured = 2.20

[[record]]
structure_smiles_string = "CCc1c(C)[nH]c(=O)c(SC)c1Oc1cc(C)cc(C)c1"
value_measured = 2.10

[[record]]
structure_smiles_string = "CCc1c(C)[nH]c(=O)c(CC)c1Oc1cc(C)cc(C)c1"
value_measured = 1.80

[[record]]
structure_smiles_string = "CCc1c(C)[nH]c(=O)c(Br)c1Oc1cc(C)cc(C)c1"
value_measured = 2.80

